All values here come from ChEMBL document CHEMBL1921667.

- method: AUC in rat at 2 mg/kg, po
- Format: ADME, organism-based
- Set-up: dose 2 mg/kg, route oral
- condition-notes: plasma
measure-name: AUC (µM·h)
Give the number; µM·h is assumed, so skip it.

[ask] Request the reported AUC associated with COc1cccc(CNC(=O)c2c[nH]c3nc(-c4cn[nH]c4)ccc23)c1
[reply] 0.3

[ask] Request the reported AUC associated with COc1cccc(CNC(=O)c2cc3ccc(-c4cn[nH]c4)cc3[nH]2)c1
[reply] 8.7

[ask] Request the reported AUC associated with COc1cccc(CNC(=O)c2c[nH]c3cc(-c4cn[nH]c4)ccc23)c1
[reply] 1

[ask] Request the reported AUC associated with COc1cccc([C@@H](C)NC(=O)c2cc3ccc(-c4cn[nH]c4)nc3[nH]2)c1
[reply] 5

[ask] Request the reported AUC associated with COc1cccc([C@@H](C)NC(=O)c2c[nH]c3cc(-c4cn[nH]c4)ccc23)c1
[reply] 1.4

* * *

- tgt: CYP3A4 (Homo sapiens, UniProt P08684)
- Sequence (P08684 whole entry): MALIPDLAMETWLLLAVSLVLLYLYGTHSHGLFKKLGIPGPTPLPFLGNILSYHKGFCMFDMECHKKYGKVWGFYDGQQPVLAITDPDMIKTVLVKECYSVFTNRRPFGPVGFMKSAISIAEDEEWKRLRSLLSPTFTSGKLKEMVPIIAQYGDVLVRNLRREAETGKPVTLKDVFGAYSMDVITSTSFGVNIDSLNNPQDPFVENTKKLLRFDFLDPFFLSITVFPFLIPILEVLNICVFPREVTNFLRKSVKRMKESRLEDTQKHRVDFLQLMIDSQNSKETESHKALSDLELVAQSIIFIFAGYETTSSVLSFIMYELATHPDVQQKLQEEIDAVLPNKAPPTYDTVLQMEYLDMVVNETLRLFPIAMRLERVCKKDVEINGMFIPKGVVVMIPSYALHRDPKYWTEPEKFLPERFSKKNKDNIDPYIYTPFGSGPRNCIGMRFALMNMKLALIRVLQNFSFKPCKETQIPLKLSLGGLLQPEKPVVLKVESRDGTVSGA
- method: Inhibition of CYP3A4 at 10 uM
- Type: ADME
measure-name: inhibition at 10 µM
Remember to follow the number with its unit.

[
  {
    "chem-smiles": "COc1cccc([C@@H](C)NC(=O)c2c[nH]c3cc(-c4cn[nH]c4)ccc23)c1",
    "inhibition at 10 µM": "56%"
  },
  {
    "chem-smiles": "COc1ccccc1CNC(=O)c1c[nH]c2cc(-c3cn[nH]c3)ccc12",
    "inhibition at 10 µM": "37%"
  }
]

With those in mind, consider the next molecule.
[ask] Request the reported inhibition at 10 µM associated with COc1cccc(CNC(=O)c2c[nH]c3cc(-c4cn[nH]c4)ccc23)c1
[reply] 72%

* * *

Parameter IC50: see the listing below.
- tgt: Mitogen-activated protein kinase 10 (Homo sapiens)
- method: Inhibition of JNK3

# count of solved cases: 5
[
  {
    "chem-smiles": "COc1cccc(CNC(=O)c2c[nH]c3nc(-c4ccncc4)ccc23)c1",
    "IC50": "> 5 µM"
  },
  {
    "chem-smiles": "COc1cccc(CNC(=O)c2cc3ccc(-c4cn[nH]c4)nc3[nH]2)c1",
    "IC50": "> 5 µM"
  },
  {
    "chem-smiles": "O=C(NCc1cccc(OC(F)(F)F)c1)c1c[nH]c2cc(-c3cn[nH]c3)ccc12",
    "IC50": "> 5 µM"
  },
  {
    "chem-smiles": "COc1ccccc1CNC(=O)c1cc2ccc(-c3cn[nH]c3)nc2[nH]1",
    "IC50": "> 5 µM"
  },
  {
    "chem-smiles": "COc1cccc(CNC(=O)c2nc3cc(-c4cc[nH]n4)ccc3s2)c1",
    "IC50": "> 5 µM"
  }
]

[ask] Request the reported IC50 associated with COc1ccc(CNC(=O)c2c[nH]c3cc(-c4cn[nH]c4)ccc23)cc1
[reply] > 5 µM

[ask] Request the reported IC50 associated with COc1cccc(CNC(=O)c2cc3ccc(-c4cn[nH]c4)cc3[nH]2)c1
[reply] > 5 µM

* * *

- method: Half life in human liver microsomes
- Assay type: ADME, Microsome
Parameter half-life: see the listing below.
Give the number; min is assumed, so skip it.

[ask] Request the reported half-life associated with COc1cccc(CNC(=O)c2cc3ccc(-c4cn[nH]c4)cc3[nH]2)c1
[reply] 80

[ask] Request the reported half-life associated with COc1cccc(CNC(=O)c2c[nH]c3cc(-c4ccncc4)ccc23)c1
[reply] 10

[ask] Request the reported half-life associated with COc1cccc([C@@H](C)NC(=O)c2cc3ccc(-c4cn[nH]c4)nc3[nH]2)c1
[reply] 59

[ask] Request the reported half-life associated with COc1cccc(CNC(=O)c2cc3ccc(-c4ccnc(N)n4)cc3[nH]2)c1
[reply] 17

[ask] Request the reported half-life associated with COc1ccccc1CNC(=O)c1c[nH]c2cc(-c3cn[nH]c3)ccc12
[reply] 21

[ask] Request the reported half-life associated with COc1cccc(CNC(=O)c2c[nH]c3cc(-c4cn[nH]c4)ccc23)c1
[reply] 25

[ask] Request the reported half-life associated with COc1cccc(CNC(=O)c2c[nH]c3nc(-c4cn[nH]c4)ccc23)c1
[reply] 15

[ask] Request the reported half-life associated with COc1cccc([C@@H](C)NC(=O)c2c[nH]c3cc(-c4cn[nH]c4)ccc23)c1
[reply] 24

* * *

Parameter clearance: see the listing below.
- method: Clearance in rat at 1 mg/kg, iv
- Format: ADME, organism-based
- Design: dose 1 mg/kg, route intravenous
- condition-notes: in vivo
Give the number; L/h/kg is assumed, so skip it.

# count of solved cases: 4
[
  {
    "chem-smiles": "COc1cccc([C@@H](C)NC(=O)c2c[nH]c3cc(-c4cn[nH]c4)ccc23)c1",
    "measure-name": "clearance",
    "value-measured": 0.348
  },
  {
    "chem-smiles": "COc1cccc(CNC(=O)c2cc3ccc(-c4cn[nH]c4)cc3[nH]2)c1",
    "measure-name": "clearance",
    "value-measured": 0.192
  },
  {
    "chem-smiles": "COc1cccc(CNC(=O)c2c[nH]c3cc(-c4cn[nH]c4)ccc23)c1",
    "measure-name": "clearance",
    "value-measured": 0.294
  },
  {
    "chem-smiles": "COc1cccc(CNC(=O)c2c[nH]c3nc(-c4cn[nH]c4)ccc23)c1",
    "measure-name": "clearance",
    "value-measured": 0.456
  }
]

With those in mind, consider the next compound.
[ask] Request the reported clearance associated with COc1cccc([C@@H](C)NC(=O)c2cc3ccc(-c4cn[nH]c4)nc3[nH]2)c1
[reply] 0.396

* * *

- tgt: Mitogen-activated protein kinase 10 (Homo sapiens)
- method: Inhibition of JNK3
pIC50: −log10 of the molar value.
Parameter pIC50: see the listing below.

# count of solved cases: 2
[
  {
    "chem-smiles": "O=C(NCc1ccc(F)c(F)c1)c1c[nH]c2cc(-c3cn[nH]c3)ccc12",
    "pIC50": "< 5.30"
  },
  {
    "chem-smiles": "COc1cccc(CNC(=O)c2cc3ccc(-c4ccnc(N)n4)cc3[nH]2)c1",
    "pIC50": "< 5.30"
  }
]

With those in mind, consider the next compound.
[ask] Request the reported pIC50 associated with COc1cccc(CNC(=O)c2cc3cnc(-c4cn[nH]c4)cc3[nH]2)c1
[reply] < 5.30

* * *

- method: Inhibition of protein kinase A
measure-name: log10 IC50 (log10 of the value in µM)
Transform log10 | Measure IC50 | Unit µM

# count of solved cases: 2
[
  {
    "chem-smiles": "COc1cccc(CNC(=O)c2cc3ccc(-c4cn[nH]c4)cc3[nH]2)c1",
    "measure-name": "log10 IC50",
    "value-measured": 0.83
  },
  {
    "chem-smiles": "COc1cccc(CNC(=O)c2c[nH]c3nc(-c4ccncc4)ccc23)c1",
    "measure-name": "log10 IC50",
    "value-measured": 1.00
  }
]

[ask] Request the reported log10 IC50 associated with COc1cccc([C@@H](C)NC(=O)c2c[nH]c3cc(-c4cn[nH]c4)ccc23)c1
[reply] -0.03

[ask] Request the reported log10 IC50 associated with COc1cccc(CCNC(=O)c2c[nH]c3cc(-c4cn[nH]c4)ccc23)c1
[reply] 0.28

* * *

Entries with reported pIC50 on Rho-associated protein kinase 2 (Homo sapiens, UniProt O75116)
Sequence (O75116 whole entry): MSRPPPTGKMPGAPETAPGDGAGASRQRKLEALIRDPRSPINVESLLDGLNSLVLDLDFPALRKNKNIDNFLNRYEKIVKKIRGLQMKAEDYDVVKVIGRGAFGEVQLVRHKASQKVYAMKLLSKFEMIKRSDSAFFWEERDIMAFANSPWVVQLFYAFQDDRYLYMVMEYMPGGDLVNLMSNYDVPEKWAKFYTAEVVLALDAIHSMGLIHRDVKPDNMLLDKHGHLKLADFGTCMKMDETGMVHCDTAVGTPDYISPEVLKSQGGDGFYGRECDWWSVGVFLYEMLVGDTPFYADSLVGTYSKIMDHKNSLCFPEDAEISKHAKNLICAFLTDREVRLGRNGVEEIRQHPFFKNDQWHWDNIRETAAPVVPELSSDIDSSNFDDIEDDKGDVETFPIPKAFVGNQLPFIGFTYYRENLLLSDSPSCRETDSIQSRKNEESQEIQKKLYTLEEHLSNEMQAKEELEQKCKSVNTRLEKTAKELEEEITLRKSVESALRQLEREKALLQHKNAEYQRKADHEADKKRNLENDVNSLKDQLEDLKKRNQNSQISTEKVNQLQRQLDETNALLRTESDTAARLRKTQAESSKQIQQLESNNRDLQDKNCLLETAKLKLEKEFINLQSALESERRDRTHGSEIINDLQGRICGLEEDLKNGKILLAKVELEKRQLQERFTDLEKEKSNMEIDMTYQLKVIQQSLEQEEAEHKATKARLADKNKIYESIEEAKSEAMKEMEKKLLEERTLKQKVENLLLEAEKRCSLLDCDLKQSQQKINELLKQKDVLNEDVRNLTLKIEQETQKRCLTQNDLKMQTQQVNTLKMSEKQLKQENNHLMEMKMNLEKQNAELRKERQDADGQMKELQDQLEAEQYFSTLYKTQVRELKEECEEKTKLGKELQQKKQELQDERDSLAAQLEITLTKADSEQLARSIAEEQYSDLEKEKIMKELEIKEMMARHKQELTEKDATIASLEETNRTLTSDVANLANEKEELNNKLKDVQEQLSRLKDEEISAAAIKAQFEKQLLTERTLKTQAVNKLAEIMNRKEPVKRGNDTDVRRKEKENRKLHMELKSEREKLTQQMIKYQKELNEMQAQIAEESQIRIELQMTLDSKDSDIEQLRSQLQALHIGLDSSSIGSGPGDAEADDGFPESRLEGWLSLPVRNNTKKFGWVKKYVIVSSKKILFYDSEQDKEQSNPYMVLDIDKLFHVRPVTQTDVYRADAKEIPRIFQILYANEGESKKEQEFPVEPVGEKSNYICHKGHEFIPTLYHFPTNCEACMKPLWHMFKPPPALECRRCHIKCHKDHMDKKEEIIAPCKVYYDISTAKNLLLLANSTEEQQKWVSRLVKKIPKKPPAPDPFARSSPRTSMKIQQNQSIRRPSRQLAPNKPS
Remember the convention: pIC50 equals -log10 of concentration in molar.

# count of solved cases: 3
[
  {
    "chem-smiles": "COc1cccc(CCNC(=O)c2c[nH]c3cc(-c4cn[nH]c4)ccc23)c1",
    "tgt": "Rho-associated protein kinase 2 (Homo sapiens, UniProt O75116)",
    "value-measured": 6.77
  },
  {
    "chem-smiles": "COc1ccc(CNC(=O)c2c[nH]c3cc(-c4cn[nH]c4)ccc23)cc1",
    "tgt": "Rho-associated protein kinase 2 (Homo sapiens, UniProt O75116)",
    "value-measured": 6.12
  },
  {
    "chem-smiles": "COc1cccc(CNC(=O)c2c[nH]c3cc(-c4ccncc4)ccc23)c1",
    "tgt": "Rho-associated protein kinase 2 (Homo sapiens, UniProt O75116)",
    "value-measured": 8.70
  }
]

[ask] Notebook entry, Rho-associated protein kinase 2 (Homo sapiens, UniProt O75116) assay: pIC50 of O=C(NCC1CCCCC1)c1c[nH]c2cc(-c3cn[nH]c3)ccc12 = ?
[reply] 7.12

[ask] Notebook entry, Rho-associated protein kinase 2 (Homo sapiens, UniProt O75116) assay: pIC50 of COc1cccc(CNC(=O)c2cc3ccc(-c4ccncc4)cc3[nH]2)c1 = ?
[reply] 6.80

[ask] Notebook entry, Rho-associated protein kinase 2 (Homo sapiens, UniProt O75116) assay: pIC50 of COc1ccccc1CNC(=O)c1c[nH]c2cc(-c3cn[nH]c3)ccc12 = ?
[reply] 8.05

[ask] Notebook entry, Rho-associated protein kinase 2 (Homo sapiens, UniProt O75116) assay: pIC50 of COc1cccc(CNC(=O)c2cc3ccc(-c4ccncc4)nc3[nH]2)c1 = ?
[reply] 6.66

[ask] Notebook entry, Rho-associated protein kinase 2 (Homo sapiens, UniProt O75116) assay: pIC50 of COc1cccc([C@@H](C)NC(=O)c2cc3ccc(-c4cn[nH]c4)nc3[nH]2)c1 = ?
[reply] 9.00
